For each of the binders below, state its EC50.
Target: T1, SARS-CoV-2 Alpha Variant RBD (SARS-CoV-2 Alpha variant)
T1 construct: domain: RBD; coated on ELISA plates
Experiment: ELISA, RBD coated
One number for each entry, in nM.

Would you please look over these solved cases?
[
  {
    "binder": "PP1108 MBP-5HVZ-PAPA-RN-23-H6 (VHH, Form: Dimer) VHH: QVQLVESGGGLVQPGGSLRLSCAASGGEKSISAAHWYRQAPGKEREFVAAITAASTTSYADSVKGRFTISRDNAKNTVYLQMNSLKPEDTAVYYCTAVLYDSYDYWGQGTQVTVSS",
    "EC50 (nM)": 1.89
  },
  {
    "binder": "PP914 MBP-5HVZ-S3a-H1-H6 (VHH, Form: Dimer) VHH: QVQLVESGGGLVQPGGSLRLSCAASGGIYSPYSMHWFRQAPGKAREWVAGIVGGGGTTYSDSVKGRFTISRDNAKNTVYLQMNSLKPEDTAVYYCNANYQEYDEYDYWGQGTQVTVSS",
    "EC50 (nM)": 2.94
  },
  {
    "binder": "PP1109 MBP-5HVZ-PAPA-RN-25-H6 (VHH, Form: Dimer) VHH: QVQLVESGGGLVQPGGSLRLSCAASGEDYSYNAAHWFRQAPGKEREWVAAINSGGGTYYADSVKGRFTISRDNAKNTVYLQMNSLKPEDTAVYYCAYLGALDRDGYDAWGQGTQVTVSS",
    "EC50 (nM)": 1.12
  }
]

Please give EC50, item by item, for the list that follows.
1. PP908 MBP-5HVZ-S2a-C4-H6 (VHH, Form: Dimer) VHH: QVQLVESGGGLVQPGGSLRLSCAASGFSESINATAWFRQAPGKQREGVAGLDGGGSDYYSDSVKGRFTISRDNAKNTVYLQMNSLKPEDTAVYYCAAQLTSSFRGYDFTPSNYDYWGQGTQVTVSS
2. PP1096 MBP-5HVZ-PAPA-RN-3-H6 (VHH) VHH: QVQLVESGGGLVQPGGSLRLSCAASGFEFTYRAVHWFRQAPGKGREWVAGVVSGGSTYYADSVKGRFTISRDNAKNTVYLQMNSLKPEDTAVYYCNAGPQAEEDTYDYWGQGTQVTVSS
3. PP1111 MBP-5HVZ-PAPA-RN-27-H6 (VHH, Form: Dimer) VHH: QVQLVESGGGLVQPGGSLRLSCAASGPQFSSNAVSWFRQAPGKEREWVAGITSGGSTDYADSVKGRFTISRDNAKNTVYLQMNSLKPEDTAVYYCTAPSVSDADRRTRDYWGQGTQVTVSS
4. PP1176 MBP-5HVZ-PAPA-R2a-F3-H6 (VHH, Form: Dimer) VHH: QVQLVESGGGLVQPGGSLRLSCAASGSITSINWMHWFRQAPGKDREGVASISQTGRGSYADSVKGRFTISRDNAKNTVYLQMNSLKPEDTAVYYCAAASRTGTPYNYWGQGTQVTVSS
5. PP903 MBP-5HVZ-R1i-A11-H6 (VHH, Form: Dimer) VHH: QVQLVESGGGLVQPGGSLRLSCAASGSILQINAIHWFRQAPGKQREEVAAITSGGSTGYADSVKGRFTISRDNAKNTVYLQMNSLKPEDTAVYYCAATSTRGGLDSDYWGQGTQVTVSS

[1.74, 1.92, 0.31, 0.27, 0.28]

Give EC50 for all binders that follow.
1. PP909 MBP-5HVZ-S2b-A7-H6 (VHH, Form: Dimer) VHH: QVQLVESGGGLVQPGGSLRLSCAASGSSDSWNALHWFRQAPGKEREFVAGISSAGSGYYADSVKGRFTISRDNAKNTVYLQMNSLKPEDTAVYYCNGYEHTTGYDYWGQGTQVTVSS
2. PP1094 MBP-5HVZ-PAPA-RN-1-H6 (VHH) VHH: QVQLVESGGGLVQPGGSLRLSCAASGYIFEGGPTAWFRQAPGKGREFVAAITTSGETSYAYSVKGRFTISRDNAKNTVYLQMNSLKPEDTAVYYCNATDRDETGYDYWGQGTQVTVSS
3. PP935 MBP-5HVZ-S3b-E11-H6 (VHH, Form: Dimer) VHH: QVQLVESGGGLVQPGGSLRLSCAASGDIYSQSAMAWYRQAPGKEREFVAAITTTGSRSYKDSVKGRFTISRDNAKNTVYLQMNSLKPEDTAVYYCAAFAVRSSSVSDAYDYWGQGTQVTVSS
4. PP1145 MBP-5HVZ-PAPA-R2d-A6-H6 (VHH, Form: Dimer) VHH: QVQLVESGGGLVQPGGSLRLSCAASGSGASIGAMHWFRQAPGKGREWVASITSAGNTYYGDSVKGRFTISRDNAKNTVYLQMNSLKPEDTAVYYCNALAGANYESQWEEYNYWGQGTQVTVSS
5. PP912 MBP-5HVZ-S2b-G8-H6 (VHH, Form: Dimer) VHH: QVQLVESGGGLVQPGGSLRLSCAASGSIQSYEAMHWFRQAPGKAREWVAVITWGDSTQYGDSVKGRFTISRDNAKNTVYLQMNSLKPEDTAVYYCAADVRQGYSSWGQGTQVTVSS
6. PP1106 MBP-5HVZ-PAPA-RN-21-H6 (VHH, Form: Dimer) VHH: QVQLVESGGGLVQPGGSLRLSCAASGLQTSDNAMHWFRQAPGKNRELVAGLTSGTSRNYGDSVKGRFTISRDNAKNTVYLQMNSLKPEDTAVYYCAAFPDVGDASSIGFVYWGQGTQVTVSS
7. PP1104 MBP-5HVZ-PAPA-RN-19-H6 (VHH, Form: Dimer) VHH: QVQLVESGGGLVQPGGSLRLSCAASGIDDSIGAMHWFRQAPGKGREFVAALSGTGTTSYADSVKGRFTISRDNAKNTVYLQMNSLKPEDTAVYYCAAAFPAGGDYWGQGTQVTVSS

0.44
0.89
0.47
1.94
1.96
2.05
1.09

Dear colleague, could you please provide EC50 for the binders listed below?
1. PP934 MBP-5HVZ-S3a-H2-H6 (VHH, Form: Dimer) VHH: QVQLVESGGGLVQPGGSLRLSCAASGAAFSKNALHWFRQAPGKGREWVASITSGSGTQYMDSVKGRFTISRDNAKNTVYLQMNSLKPEDTAVYYCAALAYSGGYDYWGQGTQVTVSS
2. PP1110 MBP-5HVZ-PAPA-RN-26-H6 (VHH, Form: Dimer) VHH: QVQLVESGGGLVQPGGSLRLSCAASGSISSINSMHWYRQAPGKEREWVAAVSSYGSDYYADSVKGRFTISRDNAKNTVYLQMNSLKPEDTAVYYCAARTVTGFTYGDYWGQGTQVTVSS

1.56
4.98
